Test system: T47D
MEASUREMENT NOTES: NCI tumour cell line growth inhibition, 48 h
Calls of active or inactive are those of the source. No stated cut-off is given here; in the data, active = GI50 up to about 1.1 µM and inactive = higher.
// allowed return values: True for active, False for inactive

For orientation, consider the following solved cases.
COCc1cc2c(cc1/C(=C/[N+](=O)[O-])CS(=O)(=O)c1ccccc1)OCO2
False
COc1ccc2nc3ccccc3c(NCCCCCN(CCCl)CCCl)c2c1
True
Cc1cn(CC2=NCC(C)(C)CN2)c(=O)[nH]c1=O
False
C=C(C)[C@@H]1CC[C@]2(CO)CC[C@]3(C)[C@H](CC[C@@H]4[C@@]5(C)CC[C@H](O)C(C)(C)[C@@H]5CC[C@]43C)[C@@H]12
False
Cc1[nH]n(-c2nc(O)c(-c3ccccc3)c(=O)[nH]2)c(=O)c1CCO
False
Cn1c(N/N=C/c2ccccc2)nc(-c2ccc([N+](=O)[O-])cc2)c(C#N)c1=O
False
CC1(O)CC(C(F)(F)F)(C(F)(F)F)OC1=O (centres undefined)
False
O=C(CN(c1ccc(S(=O)(=O)O)cc1)c1ccc(S(=O)(=O)O)cc1)Nn1cnc2ccc(S(=O)(=O)N(c3ccc(S(=O)(=O)O)cc3)c3ccc(S(=O)(=O)O)cc3)cc2c1=O
False

--- query ---
### Prompt Called result for CC1(C)c2ccccc2C(O)C12CCC(=O)CC2 (centres undefined)
### Response False
